- Tested on: MCF7 breast
- assayText: NCI tumour cell line growth inhibition, 48 h

>  <compound>
Cc1cn2c(/C=N/Nc3ccccn3)c(-c3ccc(Cl)c([N+](=O)[O-])c3)nc2s1

>  <testedTarget>
MCF7 breast

>  <TGI>
> 50 µM

$$$$
>  <compound>
CC(C)N1C(NNC(=O)c2cnccn2)=NS(=O)(=O)c2ccccc21

>  <testedTarget>
MCF7 breast

>  <TGI>
> 100 µM

$$$$
>  <compound>
O=C1NC(=O)C(COCc2ccccc2)C2=C1SCCC2 (stereo not drawn)

>  <testedTarget>
MCF7 breast

>  <TGI>
> 100 µM

$$$$

----------
- Test system: MALME-3M melanoma
- assayText: NCI tumour cell line growth inhibition, 48 h

>  <compound>
C/C(CC1SCCCS1)=C(/C)CC1SCCCS1

>  <TGI>
> 100 µM

$$$$
>  <compound>
Cc1ccc(-c2c(C#N)c(N)nc3c2CCS(=O)(=O)c2ccccc2-3)cc1

>  <TGI>
> 100 µM

$$$$
>  <compound>
Cc1ccc(Sc2ccc(C)cc2[N+](=O)[O-])c([N+](=O)[O-])c1

>  <TGI>
> 100 µM

$$$$
>  <compound>
NC(CCCCNC(=O)CNC(=O)OCc1ccccc1)C(=O)NC(CCCCNC(=O)CNC(=O)OCc1ccccc1)C(=O)NC(CCCCNC(=O)CNC(=O)OCc1ccccc1)C(=O)NC(CCCCNC(=O)CNC(=O)OCc1ccccc1)C(=O)NC(CCCCNC(=O)CNC(=O)OCc1ccccc1)C(=O)NC(CCCCNC(=O)CNC(=O)OCc1ccccc1)C(=O)O (centres undefined)

>  <TGI>
> 75 µM

$$$$

----------
- Test system: KM12 colon
- assayText: NCI tumour cell line growth inhibition, 48 h

>  <compound>
CC12c3c4cc(Br)cc3Oc3cc(Br)cc(c31)Oc1cc(Br)cc(c12)O4

>  <TGI>
> 100 µM

$$$$
>  <compound>
COc1cc(C2CC(c3ccc(N(C)C)cc3)=NN2C(C)=O)cc(OC)c1OC (stereo not given)

>  <TGI>
> 52.8 µM

$$$$
>  <compound>
O=C(CCc1cc(-c2ccccc2)nc(=S)[nH]1)Nc1ccccc1[N+](=O)[O-]

>  <TGI>
> 100 µM

$$$$
>  <compound>
CCC(/C=C/c1ccccc1)=N\Nc1ccc(Cl)c(Cl)c1

>  <TGI>
> 100 µM

$$$$
>  <compound>
Cc1ccc(S(=O)(=O)Nn2c(S)c(C#N)c(-c3ccc([N+](=O)[O-])cc3)c(C#N)c2=O)cc1

>  <TGI>
> 100 µM

$$$$
>  <compound>
CC(=O)NC1CC2Oc3ccc(C)cc3C(C)(O2)C1O (stereo not given)

>  <TGI>
> 100 µM

$$$$
>  <compound>
CC(C)C12C=CC(C)(CC1)n1c(=O)c3cc4ccccc4cc3c(=O)n12 (stereo not given)

>  <TGI>
> 100 µM

$$$$
>  <compound>
Cc1cn2c(/C=N/Nc3ccccn3)c(-c3ccc(Cl)c([N+](=O)[O-])c3)nc2s1

>  <TGI>
> 50 µM

$$$$
>  <compound>
C=CCNC(=O)NCCCC(NC(C)=O)C(=O)NCc1ccccc1 (stereo not given)

>  <TGI>
> 100 µM

$$$$
>  <compound>
O=C1/C(=C/c2c(Cl)[nH]c3ccccc23)c2ccccc2N1c1ccccc1

>  <TGI>
19.7 µM

$$$$
>  <compound>
COc1cc(C2C3=C(COC3=O)Nc3cc4c(cc32)CCC4)cc2c1OCO2 (stereo not given)

>  <TGI>
0.12 µM

$$$$
>  <compound>
COc1ccc(C(=O)N(C(=S)OCCOc2ccccc2)c2ccccc2)cc1

>  <TGI>
> 100 µM

$$$$
>  <compound>
Cn1cc(-c2ccc(-c3cn(C)c4ccc(Cl)cc34)s2)c2cc(Cl)ccc21

>  <TGI>
> 100 µM

$$$$
>  <compound>
N#Cc1[nH]c(=O)n(-c2cccc3ccccc23)c1N

>  <TGI>
> 10 µM

$$$$
>  <compound>
c1ccc(CSc2nnc3c4ccccc4c4ccccc4c3n2)cc1

>  <TGI>
> 100 µM

$$$$
>  <compound>
O=c1oc(-c2ccccc2)c(-c2ccccc2)n1-c1ccc(Br)cc1

>  <TGI>
> 100 µM

$$$$
>  <compound>
COC(=O)C1=C(O)c2cc3c(cc2[C@H](c2cc(OC)c(OC)c(OC)c2)C1C(=O)OC)OCO3 (stereo not given in full)

>  <TGI>
> 100 µM

$$$$
>  <compound>
CC(C)CCc1n[nH]c(=O)n1/N=C\c1ccccc1

>  <TGI>
> 100 µM

$$$$
>  <compound>
COC(C)(C)CCc1[nH]c2ccccc2c1CC(=O)NCCc1cncn1C

>  <TGI>
> 100 µM

$$$$
>  <compound>
C=C1CCc2occ(C)c2C2C1C1=C(CC(C)C1=O)C1OC12C (stereo not given)

>  <TGI>
> 100 µM

$$$$
>  <compound>
O=C1[C@@H]2C[C@@H](O)CN2C(=O)c2ccccc2N1CCCO

>  <TGI>
> 100 µM

$$$$
>  <compound>
N#Cc1cc([N+](=O)[O-])ccc1NC(=O)/C(=N/N)C(C(=O)c1ccc(Cl)c(Cl)c1)C1OC(=O)c2ccccc21 (stereo not given)

>  <TGI>
> 100 µM

$$$$
>  <compound>
CS(=O)(=O)Nc1ccc(N=Cc2c(O)[nH]c3ccccc23)cc1

>  <TGI>
> 25 µM

$$$$
>  <compound>
CCCC(Sc1ccccc1)P(=O)(c1ccccc1)c1ccccc1 (stereo not given)

>  <TGI>
> 100 µM

$$$$
>  <compound>
CCN1C(=O)N(CC)C2C1NN=c1s/c(=C\c3cc4ccccc4[nH]3)c(=O)n12 (stereo not given)

>  <TGI>
> 58.6 µM

$$$$
>  <compound>
Cc1ccc2c(C)c3ccc4ccccc4c3c[n+]2c1

>  <TGI>
14.6 µM

$$$$
>  <compound>
O=C1CC(C(=O)N2CCCCC2)n2c(=O)n(-c3ccccc3)c(=O)n2C1 (stereo not given)

>  <TGI>
> 100 µM

$$$$
>  <compound>
CC(=O)Nc1ccc(/C=C/C(=O)c2sc(-c3nc(C)c(C(=O)/C=C/c4ccc(NC(C)=O)cc4)s3)nc2C)cc1

>  <TGI>
> 100 µM

$$$$
>  <compound>
O=C1OCC/C1=C/c1ccc(N=Nc2c(O)ccc3ccccc23)cc1

>  <TGI>
22.3 µM

$$$$
>  <compound>
O=c1cc(N=Nc2ccc(O)cc2)[nH]c(=O)[nH]1

>  <TGI>
> 100 µM

$$$$
>  <compound>
CCCCCCCOc1c(OC)cc(C2CC(=O)Nc3c2c(C)nn3-c2nc3ccccc3[nH]2)cc1OC (stereo not given)

>  <TGI>
9.81 µM

$$$$
>  <compound>
COc1ccc2c(c1)C(C)Cc1c(Cl)nc(C)nc1N2C (stereo not given)

>  <TGI>
11.4 µM

$$$$
>  <compound>
CC(C)(C#N)c1cc(C(=O)Nc2cc(Nc3ncccc3-c3ncnc4nc[nH]c34)ccc2F)cc(C(F)(F)F)c1

>  <TGI>
> 2.09 µM

$$$$
>  <compound>
COc1cc(/C=C2\C(=O)N(Cc3ccccc3)C(c3ccccc3)S2(=O)=O)cc(OC)c1OC (stereo not given)

>  <TGI>
> 100 µM

$$$$
>  <compound>
COC(=O)C1=C(C(=O)OC)SC(=C(N=Nc2ccccc2)c2ccccc2)S1

>  <TGI>
> 100 µM

$$$$
